- target: Retinoic acid receptor alpha (Homo sapiens, UniProt P10276)
- Sequence (P10276 whole entry): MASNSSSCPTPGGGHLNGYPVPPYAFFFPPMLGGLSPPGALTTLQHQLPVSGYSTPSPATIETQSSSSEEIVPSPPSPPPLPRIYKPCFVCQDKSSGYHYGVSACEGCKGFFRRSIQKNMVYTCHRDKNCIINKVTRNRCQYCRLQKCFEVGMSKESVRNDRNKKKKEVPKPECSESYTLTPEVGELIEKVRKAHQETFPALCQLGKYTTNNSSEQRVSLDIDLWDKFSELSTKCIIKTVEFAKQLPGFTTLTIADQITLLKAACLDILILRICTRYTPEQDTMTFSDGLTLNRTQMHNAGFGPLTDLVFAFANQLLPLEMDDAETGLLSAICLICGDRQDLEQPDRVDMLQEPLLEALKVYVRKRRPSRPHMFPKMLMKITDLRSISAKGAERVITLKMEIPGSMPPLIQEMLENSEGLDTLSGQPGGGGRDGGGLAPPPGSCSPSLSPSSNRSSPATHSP
- protocolDetails: Binding affinity for Retinoic Acid Receptor alpha (RAR alpha)
pIC50: −log10 of the molar value.
measuredParameter: pIC50

CC1(C)CCC(C)(C)c2nc(-c3ccc(-c4ccc(C(=O)O)cc4)[nH]3)cnc21
8.66
CC1(C)CCC(C)(C)c2nc(-c3cc(-c4ccc(C(=O)O)cc4)co3)cnc21
7.72
CC1(C)CCC(C)(C)c2nc(-c3ccc(-c4ccc(C(=O)O)cc4)o3)cnc21
7.49
CC1(C)CCC(C)(C)c2nc(-c3csc(-c4ccc(C(=O)O)cc4)n3)cnc21
7.08
CC1(C)CCC(C)(C)c2nc(-c3ccc(-c4ccc(C(=O)O)cc4)s3)cnc21
6.89
CC1(C)CCC(C)(C)c2nc(-c3cc(-c4ccc(C(=O)O)cc4)cs3)cnc21
8.62
